# SUBJECT OF TEST: PARG (Homo sapiens, UniProt Q86W56)
# Construct: made in house
# Sequence (Q86W56 whole entry): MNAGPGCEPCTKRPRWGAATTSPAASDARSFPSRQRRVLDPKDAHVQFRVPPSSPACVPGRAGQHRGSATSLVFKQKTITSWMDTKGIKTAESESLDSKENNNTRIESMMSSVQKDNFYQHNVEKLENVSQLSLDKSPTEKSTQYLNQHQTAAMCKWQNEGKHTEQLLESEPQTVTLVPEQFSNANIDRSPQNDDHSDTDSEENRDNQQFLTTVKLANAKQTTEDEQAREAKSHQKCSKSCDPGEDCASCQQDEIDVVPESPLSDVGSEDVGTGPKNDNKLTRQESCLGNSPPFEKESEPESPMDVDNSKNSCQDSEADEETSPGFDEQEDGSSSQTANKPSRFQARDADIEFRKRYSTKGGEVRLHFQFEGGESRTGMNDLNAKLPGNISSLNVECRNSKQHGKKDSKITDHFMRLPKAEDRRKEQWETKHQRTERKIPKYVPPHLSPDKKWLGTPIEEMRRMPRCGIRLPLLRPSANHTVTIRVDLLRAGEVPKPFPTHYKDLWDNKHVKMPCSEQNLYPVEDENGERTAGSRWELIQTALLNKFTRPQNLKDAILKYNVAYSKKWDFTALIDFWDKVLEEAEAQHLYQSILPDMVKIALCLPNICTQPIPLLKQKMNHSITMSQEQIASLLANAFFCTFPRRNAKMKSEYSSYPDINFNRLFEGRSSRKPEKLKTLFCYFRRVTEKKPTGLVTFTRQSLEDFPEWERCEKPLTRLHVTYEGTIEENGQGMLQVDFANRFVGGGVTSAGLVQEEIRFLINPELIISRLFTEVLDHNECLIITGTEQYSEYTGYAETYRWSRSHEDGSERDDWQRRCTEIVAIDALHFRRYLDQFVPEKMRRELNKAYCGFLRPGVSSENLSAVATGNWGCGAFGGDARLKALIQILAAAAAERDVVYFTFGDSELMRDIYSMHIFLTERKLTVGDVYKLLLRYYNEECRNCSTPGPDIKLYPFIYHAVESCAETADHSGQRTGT
# MEASUREMENT DESCRIPTION: Enzymatic inhibitory activity against PARG, HTRF assay
# Format: biochemical
# MEASUREMENT PARAMETERS: HTRF; PARylated PARP1 protein as substrate; 60 minutes at room temperature; read-out: IC50 against PARG enzyme
MEASURED QUANTITY: IC50 (nM)

# COMPOUND, DATA VALUE
records = [
    ("C=CCn1c(=O)n(-c2nnc(C(F)F)s2)c2cc(S(=O)(=O)NC3(C#N)CC3)cc(N3CCN([S+]([O-])C(C)(C)C)CC3)c21 (stereo not shown) [Compound 074A-11]", 2.8),
    ("CC(C)n1c(=O)n(-c2nnc(C(F)F)s2)c2cc(S(=O)(=O)NC3(C#N)CC3)cc(N3CCN(C(=O)N(C)C)CC3)c21", 13.9),
    ("C[C@H]1CN(c2cc(S(=O)(=O)NC3(C)CC3)cc3c2n2ccnc2n3-c2nnc(C(F)F)s2)C[C@H](C)N1", 16.5),
    ("C=CCn1c(=O)n(-c2nnc(C(F)F)s2)c2cc(S(=O)(=O)NC3(C)COC3)cc(N3CCN(C(=O)C(C)C)CC3)c21 [Compound 068B]", 15.8),
    ("C[C@H]1CN(c2cc(S(=O)(=O)NC3(C)CC3)cc3c2c2nccnc2n3-c2nnc(C(F)F)s2)C[C@H](C)N1", 1.1),
    ("Cn1c(=O)n(-c2nnc(C(F)F)s2)c2cc(S(=O)(=O)NC3(CF)CC3)cc(N3CCNCC3)c21", 35.2),
    ("C=CCn1c(=O)n(-c2nnc(C(F)F)s2)c2cc(S(=O)(=O)NC3(C#N)CC3)cc(N3CCN(C(=O)C(C)(C)C)CC3)c21 [Compound 067T]", 16),
    ("CC(C)n1c(=O)n(-c2nnc(C(F)F)s2)c2cc(S(=O)(=O)NC3(C#N)CC3)cc(N3CCN(S(=O)(=O)C(C)C)CC3)c21", 5.5),
    ("C=CCn1c(=O)n(-c2nnc(C(F)F)s2)c2cc(S(=O)(=O)NC3(C#N)CC3)cc(N3CCN(C(=O)C(C)(C)N)CC3)c21 [Compound 067P]", 5.2),
    ("C[C@H]1CN(c2cc(S(=O)(=O)NC3(C)CC3)cc3c2n2ncnc2n3-c2nnc(C(F)F)s2)C[C@H](C)N1 [Compound 065M]", 1.4),
    ("CN(C)C(=O)N1CCC(c2cc(S(=O)(=O)NC3(C)CC3)cc3c2n(C)c(=O)n3-c2nnc(C(F)F)s2)CC1", 3.5),
    ("C[C@H]1CN(c2cc(S(=O)(=O)NC3(C)CC3)cc3c2nc([C@@H]2CC4(CC4)CO2)n3-c2nnc(C(F)F)s2)C[C@H](C)N1", 1.9),
    ("CC(C)(F)C(=O)N1CCN(c2cc(S(=O)(=O)NC3(C#N)CC3)cc3c2ncn3-c2nnc(C(F)F)s2)CC1", 31.4),
]

###

# MEASUREMENT DESCRIPTION: Pharmacokinetic evaluation in CD-1 mice (IV and PO)
# Assay type: in vivo
# MEASUREMENT PARAMETERS: male, mouse, plasma, PO, 30 mg/kg

# MOLECULE, half-life, h
records = [
    ("C[C@H]1CN(c2cc(S(=O)(=O)NC3(C)CC3)cc3c2n2nc(C(F)(F)F)nc2n3-c2nnc(C(F)F)s2)C[C@H](C)N1 [Compound 065W]", 3.3),
    ("CCc1nc2n(-c3nnc(C(F)F)s3)c3cc(S(=O)(=O)NC4(C)CC4)cc(N4C[C@H](C)N[C@@H](C)C4)c3n2n1 [Compound 065R]", 2.4),
]

###

# SUBJECT OF TEST: PARG (Homo sapiens)
# Construct: made in house
# MEASUREMENT DESCRIPTION: Enzymatic inhibitory activity against PARG, HTRF assay
# Assay type: biochemical
# MEASUREMENT PARAMETERS: HTRF; PARylated PARP1 protein as substrate; 60 minutes at room temperature; read-out: IC50 against PARG enzyme
# Protocol: In this experiment, the enzymatic inhibitory activity of the compounds of the present disclosure against PARG was determined using an HTRF (homogeneous time-resolved fluorescence) assay. HTRF assay reagents were purchased from PerkinElmer (Cat. Nos. 61HISTLB and 610SAXLB). The purified protein was prepared in-house. PARG enzyme reaction buffer: 50 mM Tris (pH 7.4), 0.1 mg/mL BSA, 3 mM EDTA, 0.4 mM EGTA, 1 mM DTT, 50 mM KCl, and 0.01% Tween 20. […]
MEASURED QUANTITY: log10(IC50) (log10 of the value in nM)

# COMPOUND, SUBJECT OF TEST, MEASURED QUANTITY, DATA VALUE
records = [
    ("CN(C)C(=O)N1CCN(c2cc(S(=O)(=O)NC3(C#N)CC3)cc3c2n(CC(F)(F)F)c(=O)n3-c2nnc(C(F)F)s2)CC1", "PARG (Homo sapiens)", "log10(IC50)", 0.85),
    ("C=CCn1c(=O)n(-c2nnc(C(F)F)s2)c2cc(S(=O)(=O)NC3(C#N)CC3)cc(N3CCN(C(=O)C4CCCN4C(=O)OC)CC3)c21 (stereo not drawn) [Compound 076E]", "PARG (Homo sapiens)", "log10(IC50)", 0.69),
    ("C[C@H]1CN(c2cc(S(=O)(=O)NC3(C)COC3)cc3c2nc(C2CCCO2)n3-c2nnc(C(F)F)s2)C[C@H](C)N1 (stereo partly drawn) [Compound 077K]", "PARG (Homo sapiens)", "log10(IC50)", 1.11),
    ("C=CCn1c(=O)n(-c2nnc(C(F)(F)F)s2)c2cc(S(=O)(=O)NC3(C#N)CC3)cc(N3CCN(C(=O)C(C)C)CC3)c21 [Compound 070A]", "PARG (Homo sapiens)", "log10(IC50)", 1.18),
    ("C[C@H]1CN(c2cc(S(=O)(=O)NC3(C)CC3)cc3c2n2nc(C(=O)NC4(C)CC4)nc2n3-c2nnc(C(F)F)s2)C[C@H](C)N1 [Compound 084K]", "PARG (Homo sapiens)", "log10(IC50)", -0.15),
    ("CC(C)Oc1nc2c(N3C[C@H](C)N[C@@H](C)C3)cc(S(=O)(=O)NC3(C)CC3)cc2n1-c1nnc(C(F)F)s1 [Compound 077G]", "PARG (Homo sapiens)", "log10(IC50)", 0.20),
]

###

# SUBJECT OF TEST: PARG (Homo sapiens, UniProt Q86W56)
# Construct: made in house
# MEASUREMENT DESCRIPTION: Enzymatic inhibitory activity against PARG, HTRF assay
# Format: biochemical
# MEASUREMENT PARAMETERS: HTRF; PARylated PARP1 protein as substrate; 60 minutes at room temperature; read-out: IC50 against PARG enzyme

# COMPOUND, SUBJECT OF TEST, IC50 [nM]
rows = [
    ("CC(C)C(=O)N1CCN(c2cc(S(=O)(=O)NC3(C#N)CC3)cc3c2n(C2CC2)c(=O)n3-c2nnc(C(F)F)s2)CC1 [Compound A055]", "PARG (Homo sapiens, UniProt Q86W56)", 11.9),
    ("C[C@H]1CN(c2cc(S(=O)(=O)NC3(C)CC3)cc3c(-c4nnc(C(F)F)s4)c([C@H]4CCCO4)nn23)C[C@H](C)N1 [Compound 083A1]", "PARG (Homo sapiens, UniProt Q86W56)", 14.6),
    ("CCc1nc2n(-c3nnc(C(F)F)s3)c3cc(S(=O)(=O)NC4(C)CC4)cc(N4C[C@H](C)N[C@@H](C)C4)c3n2n1 [Compound 065R]", "PARG (Homo sapiens, UniProt Q86W56)", 0.4),
    ("C=CCn1c(=O)n(-c2nnc(C(F)F)s2)c2cc(S(=O)(=O)NC3(C#N)CC3)cc(N3CCN(S(=O)(=O)C(C)(C)C)CC3)c21 [Compound 074A]", "PARG (Homo sapiens, UniProt Q86W56)", 0.8),
    ("COCc1nc2n(-c3nnc(C(F)F)s3)c3cc(S(=O)(=O)NC4(C)CC4)cc(N4C[C@H](C)N[C@@H](C)C4)c3n2n1 [Compound 065U]", "PARG (Homo sapiens, UniProt Q86W56)", 0.5),
    ("CC(C)S(=O)(=O)N1CCN(c2cc(S(=O)(=O)NC3(C#N)CC3)cc3c2nc(OC2CC2)n3-c2nnc(C(F)F)s2)CC1 [Compound 057P]", "PARG (Homo sapiens, UniProt Q86W56)", 29.3),
    ("[2H]C([2H])([2H])OC1(C(=O)N2CCN(c3cc(S(=O)(=O)NC4(C#N)CC4)cc4c3n(CC=C)c(=O)n4-c3nnc(C(F)F)s3)CC2)CC1 [Compound 067ND]", "PARG (Homo sapiens, UniProt Q86W56)", 2.3),
    ("C=CCn1c(=O)n(-c2nnc(C(F)F)s2)c2cc(S(=O)(=O)NC3(C#N)CC3)cc(N3CCN(C(=O)NC)CC3)c21 [Compound 067M]", "PARG (Homo sapiens, UniProt Q86W56)", 29),
    ("C=CCn1c(=O)n(-c2nnc(C(F)F)s2)c2cc(S(=O)(=O)NC3(C#N)CC3)cc(N3CCN(C(=O)C4COC4)CC3)c21 [Compound 067V]", "PARG (Homo sapiens, UniProt Q86W56)", 13.4),
    ("Cn1c(=O)n(-c2nnc(C(F)F)s2)c2cc(S(=O)(=O)NC3(C)CC3)cc(N3CCN(C(=O)N4CCCC4)CC3)c21 [Compound A027]", "PARG (Homo sapiens, UniProt Q86W56)", 3.8),
    ("C[C@H]1CN(c2cc(S(=O)(=O)NC3(C)COC3)cc3c2c2nccnc2n3-c2nnc(C(F)F)s2)C[C@H](C)N1 [Compound 065L]", "PARG (Homo sapiens, UniProt Q86W56)", 5.5),
    ("C=CCn1c(=O)n(-c2nnc(C(F)F)s2)c2cc(S(=O)(=O)NC3(C#N)CC3)cc(N3CCN(C(=O)[C@@H](C)CC)CC3)c21 [Compound 067W2]", "PARG (Homo sapiens, UniProt Q86W56)", 13.1),
    ("C=CCn1c(=O)n(-c2nnc(C(F)F)s2)c2cc(S(=O)(=O)NC3(C#N)CC3)cc(N3CCN(C(=O)C4CCCN4C)CC3)c21 (stereo not shown) [Compound 076D]", "PARG (Homo sapiens, UniProt Q86W56)", 14.7),
    ("C=CCn1c(=O)n(-c2nnc(C(F)F)s2)c2cc(S(=O)(=O)NC3(C#N)CC3)cc(N3CCN(c4nccn4C)CC3)c21 [Compound 067J]", "PARG (Homo sapiens, UniProt Q86W56)", 7.8),
    ("C[C@H]1CN(c2cc(S(=O)(=O)NC3(C)CC3)cn3c(-c4nnc(C(F)F)s4)c([C@@H]4CCCO4)nc23)C[C@H](C)N1 [Compound 080B2]", "PARG (Homo sapiens, UniProt Q86W56)", 0.4),
    ("CC(C)S(=O)(=O)N1CCN(c2cc(S(=O)(=O)NC3(C)CC3)cc3c2n(C)c(=O)n3-c2nnc(C(F)F)s2)CC1 [Compound A023]", "PARG (Homo sapiens, UniProt Q86W56)", 1.5),
    ("CC(C)C(=O)N1CCN(c2cc(S(=O)(=O)NC3(C#N)CC3)cc3c2ncn3-c2nnc(C(F)F)s2)CC1 [Compound B010]", "PARG (Homo sapiens, UniProt Q86W56)", 31.4),
    ("CC(C)C(=O)N1CCN(c2cc(S(=O)(=O)NC3(C)CC3)cc3c2[nH]c(=O)n3-c2nnc(C(F)F)s2)CC1 [Compound A002]", "PARG (Homo sapiens, UniProt Q86W56)", 16.4),
    ("C=CCn1c(=O)n(-c2nnc(C(F)F)s2)c2cc(S(=O)(=O)NC3(C#N)CC3)cc(N3CCN(C(=O)C4CCOC4)CC3)c21 (stereo not shown) [Compound 072B]", "PARG (Homo sapiens, UniProt Q86W56)", 15.9),
    ("C[C@H]1CN(c2cc(S(=O)(=O)NC3(C)CC3)cc3c2nnn3-c2nnc(C(F)F)s2)C[C@H](C)N1 [Compound 008B]", "PARG (Homo sapiens, UniProt Q86W56)", 9.6),
    ("C=CCn1c(=O)n(-c2nnc(C(F)F)s2)c2cc(S(=O)(=O)NC3(C#N)CC3)cc(N3CCN(C(=O)C4(C)CCCO4)CC3)c21 (stereo not shown) [Compound 076J]", "PARG (Homo sapiens, UniProt Q86W56)", 7),
    ("C[C@H]1CN(c2cc(S(=O)(=O)NC3(C)CC3)cc3c2n2nc(C(C)(C)O)nc2n3-c2nnc(C(F)F)s2)C[C@H](C)N1 [Compound 065T]", "PARG (Homo sapiens, UniProt Q86W56)", 1.5),
    ("C[C@H]1CN(c2cc(S(=O)(=O)NC3(C)CC3)cc3c2n2nc(C(F)(F)F)nc2n3-c2nnc(C(F)F)s2)C[C@H](C)N1 [Compound 065W]", "PARG (Homo sapiens, UniProt Q86W56)", 0.8),
    ("C=CCn1c(=O)n(-c2nnc(C(F)F)s2)c2cc(S(=O)(=O)NC3(C#N)CC3)cc(N3CCN(S(=O)(=O)C4(C)CC4)CC3)c21 [Compound 074B]", "PARG (Homo sapiens, UniProt Q86W56)", 2.7),
    ("CC(C)C(=O)N1CCN(c2cc(S(=O)(=O)NC3(C#N)CC3)cc3c2nc(OC2COC2)n3-c2nnc(C(F)F)s2)CC1 [Compound 057N]", "PARG (Homo sapiens, UniProt Q86W56)", 8.3),
]

Numbers sourced from patent EP4800013A1.
